system: Trypanosoma brucei; test: Trypanosoma brucei 72 hour study; assay type: functional, organism-based; parameters: scale not given: in the data most compounds retested in dose-response had high values; conditions: 30 µM; 30.03 µM
About 960 (1.5%) of roughly 66,000 compounds showed an effect of 50% or more. The full list was thinned out, with strong results kept by preference.
This section presents compounds with their documented Percent Effect values.
The reply should contain only the number, in %.

Field: example entries. Status: answers known.
# compound, targetOfAssay, Percent Effect / %
measured = [
    ("CCS(=O)(=O)N1Cc2ccccc2CC1C(=O)OCc1c(C)noc1C (stereo unspecified)", "Trypanosoma brucei", -54.09),
    ("CC(=O)N1C[C@@H](c2ccsc2)[C@@H]2CN(Cc3ccccc3)CC[C@@H]21", "Trypanosoma brucei", 3.298),
    ("Cn1ncc2c1C(COCC1CC1)CN(C(=O)c1cscn1)C2.O=C(O)C(F)(F)F (stereo unspecified)", "Trypanosoma brucei", 21.88),
    ("NC(=O)CN1CCC(C(=O)N2CCCC(OCc3cccnc3)C2)CC1 (stereo unspecified)", "Trypanosoma brucei", 52.75),
]

# query: Percent Effect of entry CN(C)CCNC(=O)c1sccc1N(C)S(=O)(=O)c1ccc(Cl)cc1 -35.26

====

tested on: Trypanosoma brucei; assay: Trypanosoma brucei 72 hour study; format: functional, organism-based; parameters: scale not given: in the data most compounds retested in dose-response had high values; conditions: 30 µM; 30.03 µM
The campaign covered roughly 66,000 compounds. About 960 (1.5%) showed an effect of 50% or more. Many of the other results were omitted from the sample, so strong results are more common in it than they were.
attributeMeasured: Percent Effect (%)
The reply should contain only the number, in %.

# query: Percent Effect of entry COc1cccc(N2Cc3nc(=O)n(C(C)C)n3C2=O)c1 -40.88

Follow-up item: O=C(C1CCOCC1)N1CCO[C@H]2[C@H](Oc3cccnc3)CC[C@@H]21.O=C(O)C(F)(F)F -14.62

Follow-up item: Cn1cccc1C(=O)N1CCc2ncc(Cn3cccn3)n2CC1 59.24

Follow-up item: Cc1cccc(CNC(=O)CNc2cc(CO)ccc2Cl)c1 50.69

Follow-up item: Cn1c(C2CC2)nc2c1CCN(CCOc1ccc(C#N)cc1)C2 41.84

Follow-up item: CC(C)(C)n1ncc2c(=O)[nH]c(N3CC(O)C3)nc21 18.67

====

test system: Trypanosoma brucei; test: Trypanosoma brucei 72 hour study; format: functional, organism-based; design: scale not given: in the data most compounds retested in dose-response had high values; details: 30 µM; 30.03 µM
In all, about 66,000 compounds went through this assay and about 960 (1.5%) showed an effect of 50% or more. Only a selection was taken, and strong results are over-represented in it overall.
attributeMeasured: Percent Effect (%)
The reply should contain only the number, in %.

# query: Percent Effect of entry Cl.Cl.c1cnc(NCc2cncc3c2CCN(Cc2cccs2)C3)nc1 -8.466

Follow-up item: Cc1ccc2c(n1)N(Cc1cccnc1)CCN(C1CCOCC1)C2.O=C(O)C(F)(F)F.O=C(O)C(F)(F)F.O=C(O)C(F)(F)F -18.41

Follow-up item: Cc1cc(N2CCN(C(=O)c3cc(Cl)c[nH]3)CC2)nc(C)n1 -21.87

Follow-up item: O=C(NCc1nnc2n1CCCCC2)N(CC1CCOC1)C1CC1 (configuration not stated) -56.14

Follow-up item: Cc1ccoc1C(=O)N1C[C@H](OCc2cccnc2)[C@H]2OCCC[C@H]21.O=C(O)C(F)(F)F 55.38

Follow-up item: OC(CN1CCN(CC2CCCCC2)CC1)c1ccccc1 (configuration not stated) -15.73

Follow-up item: Cc1ccccc1C(CNc1ncnc2c1CCNC2)N(C)C (configuration not stated) -30.9

Follow-up item: COc1ccccc1NC(=O)c1[nH]nc(C(C)C)c1Br -9.686
